- Procedure Details: Solubility
- Type: physicochemical
- Run Conditions: added in portions from dimethyl sulfoxide solution
Endpoint Label: dissolved in bovine serum at a ratio of (µg/mL)
Supply the numeric figure in µg/mL, leaving out any unit text.

dissolved in bovine serum at a ratio of lookup needed for COc1c(Cl)c(C)c(C=O)c(O)c1C/C=C(C)/C=C/[C@@]1(C)[C@H](C)CCC(=O)[C@@H]1C [Compound-6, 4-O-methylASC] , thanks.
800
